assay: Pharmacokinetics assay in rats, intragastric administration; type: in vivo; details: Sprague-Dawley, rat, in vivo, po, male SD rats, 5 mg/kg, read-out: Plasma Conc. Cmax
I'd appreciate it if you could supply Cmax values for the items below.
One number for each entry, in ng/mL.

Below, 3 compounds whose answers are already recorded.
compound="CC1(C)C(=O)N(c2ccc(C#N)c(C(F)(F)F)c2)C(=S)N1c1ccc(O[C@H]2COC[C@@H]2O)c(F)c1 [Example 9]" obs_value=772
compound="CC1(C)C(=O)N(c2ccc(C#N)c(C(F)(F)F)c2)C(=S)N1c1ccc(O[C@@H]2COC[C@H]2O)cc1 [Example 15]" obs_value=999
compound="CC1(C)C(=O)N(c2ccc(C#N)c(C(F)(F)F)c2)C(=S)N1c1ccc(OCC2(N)CC2)c(F)c1 [Example 6]" obs_value=1200

Provide Cmax for all items below, preserving their order.
1. CC1(C)C(=O)N(c2ccc(C#N)c(C(F)(F)F)c2)C(=S)N1c1ccc(OCC2(N)CC2)nc1 [Example 11]
2. CC1(C)C(=O)N(c2ccc(C#N)c(C(F)(F)F)c2)C(=S)N1c1ccc(O[C@H]2COC[C@@H]2O)cc1 [Example 16]
3. CC1(C)C(=O)N(c2ccc(C#N)c(C(F)(F)F)c2)C(=S)N1c1ccc(OCC(O)CO)c(F)c1 (stereo not shown) [Example 13]
4. CC1(C)C(=O)N(c2ccc(C#N)c(C(F)(F)F)c2)C(=S)N1c1ccc(OCCO)cc1 [Example 17]

430
971
1550
864

----------
test system: LNCaP cells; assay: Proliferation inhibition of LNCaP cells (CCK-8); type: cell-based; settings: Homo sapiens, 144 h, cultured 3 + 3 days, CCK-8, OD at 450 nm
Quantity Kind: IC50 (nM)
Answers are plain numbers, in nM.

Below, 6 compounds whose answers are already recorded.
compound=CNC(=O)c1ccccc1Oc1ccc(N2C(=S)N(c3ccc(C#N)c(C(F)(F)F)c3)C(=O)C2(C)C)cc1F obs_value=201
compound="CC1(C)C(=O)N(c2ccc(C#N)c(C(F)(F)F)c2)C(=S)N1c1ccc(OCC(O)CO)cc1 (stereo not shown)" obs_value=281
compound=CC1(C)C(=O)N(c2ccc(C#N)c(C(F)(F)F)c2)C(=S)N1c1ccc(O[C@H]2CCOC2)c(F)c1 obs_value=97
compound=CNC(=O)COc1ccc(N2C(=S)N(c3ccc(C#N)c(C(F)(F)F)c3)C(=O)C2(C)C)cc1F obs_value=134
compound=CN1CCC(Oc2ccc(N3C(=S)N(c4ccc(C#N)c(C(F)(F)F)c4)C(=O)C3(C)C)cc2F)CC1 obs_value=156
compound=CC1(C)C(=O)N(c2ccc(C#N)c(C(F)(F)F)c2)C(=S)N1c1ccc(OC2CCS(=O)(=O)CC2)c(F)c1 obs_value=180

Requested read-out IC50, target or system LNCaP cells, entry CC1(C)C(=O)N(c2ccc(C#N)c(C(F)(F)F)c2)C(=S)N1c1ccc(OC2CCNC2)c(F)c1 (stereo not shown) 79

----------
I'd appreciate it if you could supply Vd/F values for the items below.
assay: Pharmacokinetics assay in rats, intragastric administration; type: in vivo; settings: Sprague-Dawley, rat, plasma, po, male SD rats, 5 mg/kg, read-out: Apparent Distribution Volume Vz/F
Give your result as the value with the unit written after it.

test_smiles=CC1(C)C(=O)N(c2ccc(C#N)c(C(F)(F)F)c2)C(=S)N1c1ccc(OC[C@H](O)CO)cc1 obs_value="3.27 L/kg"

Report Vd/F for CC1(C)C(=O)N(c2ccc(C#N)c(C(F)(F)F)c2)C(=S)N1c1ccc(OC[C@@H](O)CO)cc1 please. 2.45 L/kg
